Reference source for all entries: PubChem BioAssay AID330

T/C values for the compounds below.
- Tested on: P388 leukemia ip, CD2F1 mice, survival T/C
- experiment: NCI In Vivo Anticancer Drug Screen. Data for tumor model P388 Leukemia (intraperitoneal) in CD2F1 (CDF1) mice
- experimental_parameters: endpoint: median survival time; dose: 100.0 mg/kg/injection; schedule: Q01DX005 (ip); vehicle: Klucel (hydroxypropylcellulose) (HPC); higher = longer survival
Toxic doses and inconclusive results are not listed.

Task: Retrieve T/C on P388 leukemia ip, CD2F1 mice, survival T/C; query COc1cc(CC(CC(=O)O)C(=O)O)cc(OC)c1OC (stereo unspecified)
Output: 88 % of control

Task: Retrieve T/C on P388 leukemia ip, CD2F1 mice, survival T/C; query `O=C1c2ccccc2C(=O)c2c1cccc2-c1ccccc1`
Output: 87 % of control

Task: Retrieve T/C on P388 leukemia ip, CD2F1 mice, survival T/C; query `Cc1ccc(SC(=O)c2cccnc2Oc2ccccc2)cc1`
Output: 99 % of control

Task: Retrieve T/C on P388 leukemia ip, CD2F1 mice, survival T/C; query `CCN(CCO)CCNc1ccc(C)c2sc3cc(Cl)ccc3c(=O)c12`
Output: 111 % of control

Task: Retrieve T/C on P388 leukemia ip, CD2F1 mice, survival T/C; query `Cc1ccc(C)c(C2(c3cc(C)ccc3C)CCCCCC2=O)c1`
Output: 88 % of control

Task: Retrieve T/C on P388 leukemia ip, CD2F1 mice, survival T/C; query CC1C(=O)OC2CC34C5CC(C(C)(C)C)C36C(OC(=O)C6O)OC4(C(=O)O5)C21O (stereo unspecified)
Output: 100 % of control

---

- Tested on: P388 leukemia ip, CD2F1 mice, survival T/C
- experiment: NCI In Vivo Anticancer Drug Screen. Data for tumor model P388 Leukemia (intraperitoneal) in CD2F1 (CDF1) mice
- experimental_parameters: endpoint: median survival time; dose: 100.0 mg/kg/injection; schedule: Q01DX009 (ip); vehicle: Klucel (hydroxypropylcellulose) (HPC); higher = longer survival
Toxic doses and inconclusive results are not listed.
measure: T/C

Solved cases (5 shown):
compound=Cc1nn(C(=O)c2ccncc2)c(C)c1N=Nc1ccc(Br)cc1 target_or_test_system="P388 leukemia ip, CD2F1 mice, survival T/C" measure=T/C reading="110 % of control"
compound="Cc1cnn(C(C(=O)c2ccccc2)c2ccccc2)c1-c1ccccc1 (configuration not stated)" target_or_test_system="P388 leukemia ip, CD2F1 mice, survival T/C" measure=T/C reading="105 % of control"
compound="Cc1cnc(SC2C3CC4CC(C3)CC2C4)c(C)c1 (configuration not stated)" target_or_test_system="P388 leukemia ip, CD2F1 mice, survival T/C" measure=T/C reading="94 % of control"
compound="O=C(O)C1C2C=CC(O2)C1C(=O)Nn1cccc1 (configuration not stated)" target_or_test_system="P388 leukemia ip, CD2F1 mice, survival T/C" measure=T/C reading="94 % of control"
compound=CCSc1nc2ccc(NC(=O)CCC(=O)O)cc2s1 target_or_test_system="P388 leukemia ip, CD2F1 mice, survival T/C" measure=T/C reading="102 % of control"

Task: Read off the recorded T/C for `CCn1c(=O)c2[nH]c(SC)nc2n(CC)c1=O`
Output: 111 % of control

---

- System: P388 leukemia ip, CD2F1 mice, survival T/C
- experiment: NCI In Vivo Anticancer Drug Screen. Data for tumor model P388 Leukemia (intraperitoneal) in CD2F1 (CDF1) mice
- experimental_parameters: endpoint: median survival time; dose: 200.0 mg/kg/injection; schedule: Q01DX005 (ip); vehicle: saline; higher = longer survival
Toxic doses and inconclusive results are not listed.
measure: T/C

Solved cases (6 shown):
compound="CC(CN1C(=O)CCC1=O)N1C(=O)CCC1=O (configuration not stated)" reading="100 % of control"
compound="COC(=O)C(CC=C(C)C)C(C)=O (configuration not stated)" reading="105 % of control"
compound=CNP1(NC)=NP(N(C)C)(N(C)C)=NP(N(C)C)(N(C)C)=N1 reading="104 % of control"
compound="CC(C)(C)N1CCC1CN (configuration not stated)" reading="100 % of control"
compound="CCCCN(CCCC)C(=O)C(C)OC(C)=O (configuration not stated)" reading="105 % of control"
compound=CCCCCOCCCCC reading="96 % of control"

Field: next compound
Task: Read off the recorded T/C for `CCN(CCC(=O)OC)Cc1ccnc2ccccc12`
Output: 106 % of control
